Data credit: PubChem BioAssay (NCI)

test: NCI Yeast Anticancer Drug Screen. Data for the cln2 rad14 strain (AID 165);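 also: 0% = growth equal to vehicle treated cultures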; conditions: S. cerevisiae cln2 rad14 strain, at 50.0 µM, stronger effect = higher value
The panel holds about 79,000 compounds, 15% with a hit somewhere; the sample as a whole holds those more often.
Okay, here is how we bin by growth inhibition: lower range (below -20%), middle range (-20% to below 10%), upper range (10% or more)

> print(dat)
                                   compound         class
1  CCC(c1ccc(N(CC)CC)cc1[N+](=O)[O-])c1ccc(N(CC)CC)cc1[N+](=O)[O-]   upper range
2  O=C(CC/C=C(/CS(=O)(=O)c1ccccc1)S(=O)(=O)c1ccccc1)c1ccccc1   lower range
3                        CCCCNS(=O)(=O)CCCC   lower range
4  [N-]=[N+]=NC[C@H]1OCO[C@H](CN=[N+]=[N-])[C@H]2OCCOCCOc3ccccc3OCCOCCO[C@@H]21  middle range
5  CN(C)c1ccc(/C=C/c2nc3ccc(Cl)cc3[nH]2)cc1  middle range
6  Nc1nc(SCc2ccccc2)c2ncn(C3CC(O)C(CO)O3)c2n1 (stereo not given)   lower range
7      CC(C)N1C(=O)c2cccc3c(Br)ccc(c23)C1=O   upper range
8  CC(C)N1CN(C(C(=O)N[C@@H]2C(=O)N3C2SC(C)(C)C3C(=O)O)c2ccccc2)CSC1=S (stereo not given in full)  middle range
9       O=c1/c(=C/c2ccccc2F)sc2nc3ccccc3n12   upper range

====

test: NCI Yeast Anticancer Drug Screen. Data for the cln2 rad14 strain (AID 165);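 also: 0% = growth equal to vehicle treated cultures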; conditions: S. cerevisiae cln2 rad14 strain, at 50.0 µM, stronger effect = higher value
Compounds without any hit were thinned out: in the full panel of roughly 79,000, 15% have a hit.
Measurement Kind: growth inhibition (%)

> print(dat)
                                    molecule   measurement.kind  unit.spec  observed
 1  CC1CN(C(=S)Nc2ccccc2)CCN1c1ccccc1 (stereo unspecified)  growth inhibition          %     -34.8
 2  O=C1c2c(Cl)cccc2C(c2ccccc2)c2cccc(Cl)c21  growth inhibition          %     -11.5
 3            Cc1cc(Br)c(I)c([N+](=O)[O-])c1  growth inhibition          %      13.3
 4  CCCCOC1OC[N+](C)(C)CC1(C)C (stereo unspecified)  growth inhibition          %       3.7
 5          CC(=O)c1cc([N+](=O)[O-])c(O)cc1O  growth inhibition          %     -16.8
 6        c1ccc(-c2nc3c(N4CCOCC4)ncnc3o2)cc1  growth inhibition          %     -2.55
 7  O=C(O)c1cccc(S(=O)(=O)NN2C(=O)CSC2c2ccccc2)c1 (stereo unspecified)  growth inhibition          %      4.45
 8                Cn1cc(C(=O)C2CCCCC2)ccc1=O  growth inhibition          %      15.9
 9                         ClC(Cl)C1OCCOCCO1  growth inhibition          %     -57.8
10   O=C1c2cccc3cccc(c23)C(=O)N1CCCN(CCO)CCO  growth inhibition          %      7.95
11               S=c1ncnc2cc3[nH][nH]cc3cc12  growth inhibition          %     -33.5
12  O=c1c2cc(S(=O)(=O)Nc3ccc(Cl)cc3Cl)ccc2ncn1NS(=O)(=O)c1cccc2ccccc12  growth inhibition          %      18.8
13                              N#CCN1CCOCC1  growth inhibition          %      15.2
14  CC12CC(=O)NN=C1c1ccccc1C2 (stereo unspecified)  growth inhibition          %      29.6
15  C1=C(N2CCOCC2)/C(=C2\SC(=Nc3ccccc3)C(=Nc3ccccc3)N2c2ccccc2)CC1  growth inhibition          %      14.3
16  Cc1ccc(C(=O)C2=CN=C3C(=O)N(c4ccccc4)N(C)C3(C)C2=N)cc1 (stereo unspecified)  growth inhibition          %       1.1
17              O=C(O)c1ccccc1Nc1nc2ccccc2o1  growth inhibition          %     -26.6
18  CCN(CC)CC(C)C(O)(Cc1ccccc1)c1ccc(Cl)cc1 (stereo unspecified)  growth inhibition          %      33.5
19  N#CC(C(=O)C(=O)Nc1cccc(Cl)c1)c1ccccc1 (stereo unspecified)  growth inhibition          %     -89.1
20   C#CC(C)(O)c1ccccc1 (stereo unspecified)  growth inhibition          %     -21.6
21  CN(C)c1nc(Cl)c2c(-c3ccccc3)c(-c3ccccc3)oc2n1  growth inhibition          %      16.1
22  Cc1ccc2c(c1)C(c1cccc3ccccc13)OC2=O (stereo unspecified)  growth inhibition          %      33.3
23              CCOC(=O)c1ccc(N=Cc2cccs2)cc1  growth inhibition          %       9.5
24        CC(=O)OCc1cc2c(cc1CNCc1ccccc1)OCO2  growth inhibition          %     -31.4
25                   Cc1[nH]c(=O)c2ccccc2c1O  growth inhibition          %      6.35
26  Cn1c(=O)c2[nH]c(CCCc3ccc([N+](=O)[O-])cc3)nc2n(C)c1=O  growth inhibition          %     -26.9

====

This section presents compounds with their documented growth inhibition values.
experiment: NCI Yeast Anticancer Drug Screen. Data for the mec2-1 strain (AID 157); conditions: S. cerevisiae mec2-1 strain, at 50.0 µM, stronger effect = higher value
The panel holds about 79,000 compounds, 15% with a hit somewhere; the sample as a whole holds those more often.
Measurement Kind: growth inhibition (%)

> print(dat)
                                    compound  observed
 1  Cc1ccccc1Nc1nc2ccccc2nc1NS(=O)(=O)c1ccccc1         0
 2  Oc1ccc(C(O)CNCCCCCCNCC(O)c2ccc(O)c(O)c2)cc1O (configuration not stated)      6.65
 3  Cc1cccc(C)c1NC(=O)C(=O)CC(=O)/C=C/c1ccccc1     -20.2
 4     Cc1cccc(C)c1-n1c(C)nc2[nH]cc(C)c2c1=N     -6.25
 5                         O=C(CCCl)OC1CCCC1      -9.8
 6  CCOC(=O)C(Cc1ccc(OCc2ccccc2)c(OCc2ccccc2)c1)(NC=O)C(=O)OCC      -1.6
 7  O=C1CCC(=O)N1C(c1ccccc1)(c1ccccc1)N1C(=O)CCC1=O      12.2
 8                 Cc1cc(Cl)ncc1[N+](=O)[O-]      14.3
 9  CC(=O)NC(C)(C)C1CCC(C)CC1 (configuration not stated)      5.45
10  C=C(C)C(=O)Nc1ccc(NS(=O)(=O)c2ccc(C(C)CC)cc2)c(O)c1 (configuration not stated)      -8.7
11                        Clc1ccccc1C1OCCCO1      15.1
12             O=C(O)/C(Cc1ccnc2ccccc12)=N\O       2.7

====

experiment: NCI Yeast Anticancer Drug Screen. Data for the sgs1 mgt1 strain (AID 161);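 also: 0% = growth of cultures given vehicle only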; settings: S. cerevisiae sgs1 mgt1 strain, at 50.0 µM, stronger effect = higher value
This is part of a sample that, as a whole, favours compounds with a hit. Of some 79,000 tested, about 15% had one in any assay.
Measurement Kind: growth inhibition (%)

> print(dat)
                                    compound  unit.spec  observed
 1  C[N+](C)(CCCn1ccnc1[N+](=O)[O-])CCCn1ccnc1[N+](=O)[O-]          %      14.8
 2         Nc1nc(C=O)c(CCc2ccccc2)c(=O)[nH]1          %      -7.8
 3  CC1(C)C/C(=C\c2cccc(Cl)c2)C(=O)c2ccccc21          %     -0.75
 4  C/C=C/C(=O)OCCC(C)OC(=O)/C=C/C (stereo not given)          %      19.4
 5  CN(C)c1ccc(/C=c2/sc3nc(=O)c(-c4ccccc4NC(=O)C(F)(F)F)nn3c2=O)cc1          %     -5.95
 6  O=C1S/C(=C2\C(=O)N(CN3CCCCC3)c3ccc(Br)cc32)C(=O)N1CN1CCCCC1          %      9.35
 7  C[C@H]1CCCCC[C@@H]2CC(=O)CC2C(=O)CCC(=O)O1 (stereo not given in full)          %     -10.6
 8  CCN1C(=O)c2cc(=O)[nH]c(O)c2C1C (stereo not given)          %      -1.7
 9  CC(C)NC(=O)OCc1cn2c(c1COC(=O)NC(C)C)CCC2          %        36
10  CC1(C)OC2C(O1)[C@H]1OC(C(Cl)(Cl)Cl)=N[C@H]1C(I)[C@H]2N1C(=O)c2ccccc2C1=O (stereo not given in full)          %     -5.15
